Test system: MCF-7
Test: MTT cytotoxicity test, MCF-7
Type: cell-based, human
Conditions: breast cancer cell line, 72 hours
property.label: IC50 MCF-7

{"columns": ["compound", "IC50 MCF-7"],
 "data": [
  ["CC1=C(C)C(=O)O[C@@H]([C@@H](C)[C@@]2(C)C3=C(C[C@H]2O)[C@@H]2C[C@H]4O[C@]45[C@@H](O)C(O)CC(=O)[C@]5(C)[C@H]2CC3)C1 (stereo partly drawn) [Compound 3, Tubocapsenolide C]", ">20 µg/mL"],
  ["CC1=C(C)C(=O)O[C@@H]([C@](C)(O)[C@@]23O[C@@H]2C[C@H]2[C@@H]4C[C@H]5O[C@]56[C@@H](O)C=CC(=O)[C@]6(C)[C@H]4CC[C@@]23C)C1 [Compound 9, 20-Hydroxytubocapsanolide A]", "1.77 µg/mL"]
]}

We next turn to a different compound, shown below.
Task item: Give a short answer stating reported IC50 MCF-7 for CC1=C(C)C(=O)O[C@@H]([C@@H](C)[C@@]2(C)C3=C(C[C@H]2O)[C@@H]2C[C@H](Cl)[C@]4(O)[C@@H](O)C=CC(=O)[C@]4(C)[C@H]2CC3)C1 [Compound 7, Tubocapsenolide G] .
Reply: >20 µg/mL
